- assayed.target: Gastrin/cholecystokinin type B receptor (Homo sapiens)
- Sequence (P32239 whole entry): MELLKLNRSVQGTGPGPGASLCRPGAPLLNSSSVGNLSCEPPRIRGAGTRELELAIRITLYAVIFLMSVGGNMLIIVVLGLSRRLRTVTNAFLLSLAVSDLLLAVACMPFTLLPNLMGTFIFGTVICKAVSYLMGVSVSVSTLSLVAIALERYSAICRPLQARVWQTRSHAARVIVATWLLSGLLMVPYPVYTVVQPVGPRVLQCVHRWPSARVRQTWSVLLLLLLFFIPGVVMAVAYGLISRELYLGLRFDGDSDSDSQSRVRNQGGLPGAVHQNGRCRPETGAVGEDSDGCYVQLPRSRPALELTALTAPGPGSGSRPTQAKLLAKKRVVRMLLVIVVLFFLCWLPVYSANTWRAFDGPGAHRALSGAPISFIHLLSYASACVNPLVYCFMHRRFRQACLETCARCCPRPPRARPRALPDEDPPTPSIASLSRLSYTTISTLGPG
- measurement.protocol: Binding affinity to human recombinant cholecystokinin B receptor
pIC50: −log10 of the molar value.
measurement.name: pIC50

// query Look up pIC50 for this molecule: C[C@H]1Cc2c([nH]c3cc(Cl)c(F)cc23)[C@@]2(N1)C(=O)Nc1ccc(Cl)cc12
// result < 4.52

====

- measurement.protocol: Cytotoxicity against human THP1 cells after 4 days by XTT assay
- Type: cell-based
- assay.context: THP-1 cells
measurement.name: CC50 at 96 h (µM)
One number for each entry, in µM.

// query Look up CC50 at 96 h for this compound: C[C@H]1Cc2c([nH]c3cc(Cl)c(F)cc23)[C@@]2(N1)C(=O)Nc1ccc(Cl)cc12
// result 14

====

- measurement.protocol: Clearance in Wistar rat at 5 mg/kg, iv
- Type: ADME, organism-based
- Set-up: dose 5 mg/kg, route intravenous
- assay.context: in vivo
measurement.name: clearance (mL/min/kg)
One number for each entry, in mL/min/kg.

// query Look up clearance for this molecule: C[C@H]1Cc2c([nH]c3cc(Cl)c(F)cc23)[C@@]2(N1)C(=O)Nc1ccc(Cl)cc12 [CIPARGAMIN]
// result 3.48

====

- assayed.target: UniProtKB P25103
- Sequence (P25103 whole entry): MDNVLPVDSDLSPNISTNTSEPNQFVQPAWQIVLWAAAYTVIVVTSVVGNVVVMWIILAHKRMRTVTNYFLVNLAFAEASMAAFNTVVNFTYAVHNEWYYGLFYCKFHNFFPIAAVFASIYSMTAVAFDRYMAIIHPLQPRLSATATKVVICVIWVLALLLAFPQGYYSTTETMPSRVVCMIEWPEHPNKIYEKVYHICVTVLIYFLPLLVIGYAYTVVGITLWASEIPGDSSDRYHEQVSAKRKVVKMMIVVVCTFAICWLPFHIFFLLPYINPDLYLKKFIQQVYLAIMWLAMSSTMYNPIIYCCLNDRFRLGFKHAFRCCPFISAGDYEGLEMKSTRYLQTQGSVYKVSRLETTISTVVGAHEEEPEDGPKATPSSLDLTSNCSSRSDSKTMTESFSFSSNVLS
- measurement.protocol: Binding affinity to human recombinant neurokinin NK1 receptor
measurement.name: IC50

// query Look up IC50 for this molecule: C[C@H]1Cc2c([nH]c3cc(Cl)c(F)cc23)[C@@]2(N1)C(=O)Nc1ccc(Cl)cc12
// result > 10 µM

====

- assayed.target: Alpha-2A adrenergic receptor (Homo sapiens, UniProt P08913)
- Sequence (P08913 whole entry): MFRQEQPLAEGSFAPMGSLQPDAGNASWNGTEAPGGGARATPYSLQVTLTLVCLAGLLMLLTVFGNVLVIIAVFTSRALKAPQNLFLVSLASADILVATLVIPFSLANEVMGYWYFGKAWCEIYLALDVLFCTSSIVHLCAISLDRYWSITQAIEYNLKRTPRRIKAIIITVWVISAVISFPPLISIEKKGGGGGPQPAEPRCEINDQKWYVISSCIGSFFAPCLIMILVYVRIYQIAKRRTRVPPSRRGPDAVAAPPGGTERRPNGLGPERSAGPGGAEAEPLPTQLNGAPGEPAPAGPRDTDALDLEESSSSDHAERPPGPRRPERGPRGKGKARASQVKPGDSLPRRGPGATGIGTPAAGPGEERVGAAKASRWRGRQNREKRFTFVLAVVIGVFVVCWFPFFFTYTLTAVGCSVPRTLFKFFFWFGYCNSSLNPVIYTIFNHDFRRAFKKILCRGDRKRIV
- measurement.protocol: Binding affinity to human recombinant alpha-2a receptor
measurement.name: IC50

// query Look up IC50 for this compound: C[C@H]1Cc2c([nH]c3cc(Cl)c(F)cc23)[C@@]2(N1)C(=O)Nc1ccc(Cl)cc12
// result > 10 µM

====

- measurement.protocol: Cmax in Wistar rat at 23.7 mg/kg, po
- Type: ADME, organism-based
- Set-up: dose 23.7 mg/kg, route oral
- assay.context: in vivo
measurement.name: Cmax (µM)
Numbers only, in µM.

// query Look up Cmax for this molecule: C[C@H]1Cc2c([nH]c3cc(Cl)c(F)cc23)[C@@]2(N1)C(=O)Nc1ccc(Cl)cc12 [CIPARGAMIN]
// result 11.7

====

- measurement.protocol: Intrinsic clearance in rat liver microsome
- Assay type: ADME
- assay.context: liver microsomes
measurement.name: CLint scaled (mL/min/kg)
One number for each entry, in mL/min/kg.

// query Look up CLint scaled for this molecule: C[C@H]1Cc2c([nH]c3cc(Cl)c(F)cc23)[C@@]2(N1)C(=O)Nc1ccc(Cl)cc12
// result 5.8

====

- assayed.target: UniProtKB P07550
- Sequence (P07550 whole entry): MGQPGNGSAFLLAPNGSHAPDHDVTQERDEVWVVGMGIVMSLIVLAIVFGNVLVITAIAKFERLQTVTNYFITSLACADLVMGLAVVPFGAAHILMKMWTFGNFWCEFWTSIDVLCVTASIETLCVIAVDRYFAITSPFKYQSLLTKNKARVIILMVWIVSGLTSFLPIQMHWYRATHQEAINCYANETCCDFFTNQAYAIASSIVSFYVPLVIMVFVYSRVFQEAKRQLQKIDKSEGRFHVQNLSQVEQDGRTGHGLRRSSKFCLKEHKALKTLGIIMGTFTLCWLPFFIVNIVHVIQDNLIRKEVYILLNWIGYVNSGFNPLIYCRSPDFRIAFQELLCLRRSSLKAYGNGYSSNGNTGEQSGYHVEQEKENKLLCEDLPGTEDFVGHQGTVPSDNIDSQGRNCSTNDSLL
- measurement.protocol: Binding affinity to human recombinant adrenergic beta2 receptor
pIC50: −log10 of the molar value.
measurement.name: pIC50

// query Look up pIC50 for this compound: C[C@H]1Cc2c([nH]c3cc(Cl)c(F)cc23)[C@@]2(N1)C(=O)Nc1ccc(Cl)cc12
// result < 5.00

====

- assayed.target: B1 bradykinin receptor (Homo sapiens)
- Sequence (P46663 whole entry): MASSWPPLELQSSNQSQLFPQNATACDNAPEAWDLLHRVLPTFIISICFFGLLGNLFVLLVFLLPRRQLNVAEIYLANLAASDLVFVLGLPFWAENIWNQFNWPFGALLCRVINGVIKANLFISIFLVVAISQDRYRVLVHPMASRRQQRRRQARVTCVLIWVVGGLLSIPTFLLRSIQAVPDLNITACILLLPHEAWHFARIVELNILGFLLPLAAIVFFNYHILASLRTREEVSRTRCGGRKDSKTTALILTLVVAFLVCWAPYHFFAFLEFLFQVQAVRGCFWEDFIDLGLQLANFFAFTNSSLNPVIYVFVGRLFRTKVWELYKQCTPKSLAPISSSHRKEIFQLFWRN
- measurement.protocol: Binding affinity to human recombinant bradykinin B1 receptor
pIC50: −log10 of the molar value.
measurement.name: pIC50

// query Query the reported pIC50 for B1 bradykinin receptor (Homo sapiens); item: C[C@H]1Cc2c([nH]c3cc(Cl)c(F)cc23)[C@@]2(N1)C(=O)Nc1ccc(Cl)cc12 [CIPARGAMIN]
// result < 4.52
